# Study Target: Pancreatic CCK Receptor (Rattus norvegicus, UniProt P30551)
# Sequence (P30551 1-444): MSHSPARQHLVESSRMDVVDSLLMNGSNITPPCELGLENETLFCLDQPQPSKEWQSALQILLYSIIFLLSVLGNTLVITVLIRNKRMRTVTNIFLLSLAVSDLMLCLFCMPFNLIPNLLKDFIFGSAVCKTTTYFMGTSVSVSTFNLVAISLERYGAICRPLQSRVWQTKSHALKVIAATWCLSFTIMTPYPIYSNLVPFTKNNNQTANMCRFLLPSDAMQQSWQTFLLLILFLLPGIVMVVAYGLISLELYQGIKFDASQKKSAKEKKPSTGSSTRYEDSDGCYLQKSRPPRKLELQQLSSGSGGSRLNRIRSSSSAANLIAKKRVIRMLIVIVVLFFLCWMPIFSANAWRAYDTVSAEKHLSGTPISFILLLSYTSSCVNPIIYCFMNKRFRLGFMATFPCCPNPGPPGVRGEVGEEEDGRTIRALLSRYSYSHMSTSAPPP
Quantity Measured: IC50

Sample records with IC50:
Test Smiles | IC50
CC1=C\[C@@H](O)CC(=O)Cc2nc(co2)C(=O)N2CCC=C2C(=O)O[C@H](C(C)C)[C@H](C)/C=C/C(=O)NC\C=C\1 | > 100 µM
CC1=C\C=C\[C@@H](O)Cc2nc(co2)C(=O)N2CCC=C2C(=O)O[C@H](C(C)C)[C@H](C)/C=C/C(=O)NC\C=C\1 | > 10 µM
CC1=C\C=C\[C@H](O)Cc2nc(co2)C(=O)N2CCC=C2C(=O)O[C@H](C(C)C)[C@H](C)/C=C/C(=O)NC\C=C\1 | > 10 µM

Next:
Exam item: Query: IC50; subject: CC1=C\C=C\C(=O)Cc2nc(co2)C(=O)N2CCC=C2C(=O)O[C@H](C(C)C)[C@H](C)/C=C/C(=O)NC\C=C\1
Marked response: > 10 µM
